These measurements were taken from patent US20090291081A1.

Molecular target: T1, human IL-1α (human, UniProt P01583 113-271)
T1 sequence (looked up): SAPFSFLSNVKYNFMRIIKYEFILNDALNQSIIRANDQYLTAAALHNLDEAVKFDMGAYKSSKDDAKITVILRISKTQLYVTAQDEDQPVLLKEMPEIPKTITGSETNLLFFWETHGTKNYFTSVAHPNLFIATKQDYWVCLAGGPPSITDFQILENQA
Experiment: cell-based or functional assay
What MRC5 ND50 was measured for each of the following?
Numbers only, in pM.

Below are worked cases with known answers.
ABT1-95-4 (other, dAb, Vκ, to IL-1α) VL: DIQMTQSPSSLSASVGDRVTITCRASQPIVRNLRWYQQKPGKAPKLLIYSSSYLQSGVPSRFSGSGSGTDFTLTISSLQPEDFATYHCQQGYRWPVTFGQGTKVEIKR | 900
ABT1-95-A3 (other) VL: DIQMTQSPSSLSASVGDRVTITCRASKPGVRNMRWYQQKPGKAPKLLIYSVSYLEPGVPSRFSGSGSGTDFTLTISSLQPEDFATYHCLQGYRWPPTFGQGTKVEIKR | 11

Hi there! I need MRC5 ND50 for each item below, if you can.
1. ABT1-95-181 (other) VL: DIQMTQSPSSLSASVGDRVTITCRASKPIVRNMRWYQQKPGKAPKLLIYSVSYLEPGVPSRFSGSGSGTDFTLTISSLQPEDFATYHCLQGYRWPPTFGQGTKVEIKR
2. ABT1-95-8 (other, dAb, Vκ, to IL-1α) VL: DIQMTQSPSSLSASVGDRVTITCRASQPIQGNLRWYQQKPGKAPKLLIYSSSYLERGVPSRFSGSGSGTDFTLTISSLQPEDFATYHCQQGYRWPVTFGQGTKVEIKR
3. ABT1-95-A6 (other) VL: DIQMTQSPSSLSASVGDRVTITCRASKPGVRNMRWYQQKPGKAPKLLIYAKSYLEPGVPSRFSGSGSGTDFTLTISSLQPEDFATYHCKQGYRWPVQFGQGTKVEIKR
4. ABT1-95-3 (other, dAb, Vκ, to IL-1α) VL: DIQMTQSPSSLSASVGDRVTITCRASQPIHGNLRWYQQKPGKAPKLLIYSSSYLQSGVPSRFSGSGSGTDFTLTISSLQPEDFATYHCQQGYRWPVTFGQGTKVEIKR

1: 14; 2: 900; 3: 24; 4: 50000

Hi there! I need MRC5 ND50 for each item below, if you can.
1. ABT1-95-14 (other, dAb, Vκ, to IL-1α) VL: DIQMTQSPSSLSASVGDRVTITCRASQPIVKNLRWYQQKPGKAPKLLIYSSSYLERGVPSRFSGSGSGTDFTLTISSLQPEDFATYHCQQGYRWPVTFGQGTKVEIKR
2. ABT1-95-13 (other, dAb, Vκ, to IL-1α) VL: DIQMTQSPSSLSASVGDRVTITCRASQPIVRNLRWYQQKPGKAPKLLIYSSSYLERGVPSRFSGSGSGTDFTLTISSLQPEDFATYHCQQGYRWPVTFGQGTKVEIKR
3. ABT1-95-A5 (other) VL: DIQMTQSPSSLSASVGDRVTITCRASRTPVRNLRWYQQKPGKAPKLLIYSRSFLEPGVPSRFSGSGSGTDFTLTISSLQPEDFATYHCLQGYRWPPTFGQGTKVEIKR

250
110
16
